From: ChEMBL document CHEMBL1159037

Parameter 'readout' = pKi; parameter 'system' = Protease (Human immunodeficiency virus 1, UniProt Q9YQ12).
Sequence (Q9YQ12 whole entry): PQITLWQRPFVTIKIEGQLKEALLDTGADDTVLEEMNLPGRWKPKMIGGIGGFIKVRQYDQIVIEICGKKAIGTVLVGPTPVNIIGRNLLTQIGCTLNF
Friendly reminder that pKi comes from taking -log10 of the concentration in mol/L.

query: // returns reported pKi for input Cc1cc(CO)ccc1CNC(=O)[C@H]1N(C(=O)[C@@H](O)[C@H](Cc2ccccc2)NC(=O)O[C@H]2CO[C@H]3OCC[C@H]32)CSC1(C)C
result: 9.51

query: Here is the next compound: Cc1cc(N)ccc1CNC(=O)[C@H]1N(C(=O)[C@@H](O)[C@H](Cc2ccccc2)NC(=O)O[C@H]2CO[C@H]3OCC[C@H]32)CSC1(C)C
result: 9.00

query: Here is the next compound: Cc1ccccc1CNC(=O)[C@H]1N(C(=O)[C@@H](O)[C@H](Cc2ccccc2)NC(=O)O[C@H]2CCOC2)CSC1(C)C
result: 9.68

query: Here is the next compound: Cc1ccccc1CNC(=O)[C@H]1N(C(=O)[C@@H](O)[C@H](Cc2ccccc2)NC(=O)O[C@@H]2CCOCOC2)CSC1(C)C
result: 9.11

query: Here is the next compound: COc1ccc(CNC(=O)[C@H]2N(C(=O)[C@@H](O)[C@H](Cc3ccccc3)NC(=O)O[C@H]3CO[C@H]4OCC[C@H]43)CSC2(C)C)c(C)c1
result: 8.69

query: Here is the next compound: Cc1ccccc1CNC(=O)[C@H]1N(C(=O)[C@@H](O)[C@H](Cc2ccccc2)NC(=O)O[C@H]2CO[C@H]3OCC[C@H]32)CSC1(C)C
result: 11.28

query: Here is the next compound: Cc1ccccc1CNC(=O)[C@H]1N(C(=O)[C@@H](O)[C@H](Cc2ccccc2)NC(=O)O[C@@H]2C[C@@H]3CCO[C@@H]3C2)CSC1(C)C
result: 9.54

query: Here is the next compound: Cc1ccccc1CNC(=O)[C@H]1N(C(=O)[C@@H](O)[C@H](Cc2ccccc2)NC(=O)O[C@@H]2C[C@@H]3OCO[C@@H]3C2)CSC1(C)C
result: 9.19

query: Here is the next compound: Cc1ccccc1CNC(=O)[C@H]1N(C[C@@H](O)[C@H](Cc2ccccc2)NC(=O)O[C@H]2CO[C@H]3OCC[C@H]32)CSC1(C)C
result: 8.59

query: Here is the next compound: Cc1ccccc1CNC(=O)[C@H]1N(C[C@@H](O)[C@H](Cc2ccccc2)NC(=O)O[C@H]2CCOC2)CSC1(C)C
result: 7.06

---

# Tested on: Human immunodeficiency virus 1
# measurement-description: Antiviral activity against multi drug-resistant HIV1 isolate of subtype G in PHA-stimulated human PBMC assessed as inhibition of p24 antigen production
# Assay type: functional, organism-based
# measurement-conditions: Human immunodeficiency virus 1, isolate G
Task for the reader: assign each of the following molecules its reported IC50.
Please provide the amount together with its unit, number first.

query: Checklist item: IC50 tested on Human immunodeficiency virus 1, entry Cc1ccccc1CNC(=O)[C@H]1N(C(=O)[C@@H](O)[C@H](Cc2ccccc2)NC(=O)O[C@H]2CO[C@H]3OCC[C@H]32)CSC1(C)C , value?
result: 29 nM

query: Here is the next molecule: COC(=O)N[C@H](C(=O)N[C@@H](Cc1ccccc1)[C@@H](O)CN(Cc1ccc(-c2ccccn2)cc1)NC(=O)[C@@H](NC(=O)OC)C(C)(C)C)C(C)(C)C
result: 29 nM

query: Here is the next molecule: CC(C)CN(C[C@@H](O)[C@H](Cc1ccccc1)NC(=O)O[C@H]1CCOC1)S(=O)(=O)c1ccc(N)cc1
result: 392 nM

---

Task for the reader: assign each of the following molecules its reported pIC50.
# Tested on: Human immunodeficiency virus 1
# measurement-description: Antiviral activity against multi drug-resistant HIV1 isolate of subtype MM in PHA-stimulated human PBMC assessed as inhibition of p24 antigen production
# Type: functional, organism-based
# measurement-conditions: Human immunodeficiency virus 1, isolate MM
Friendly reminder that pIC50 comes from taking -log10 of the concentration in mol/L.

query: // returns reported pIC50 for input Cc1ccccc1CNC(=O)[C@H]1N(C(=O)[C@@H](O)[C@H](Cc2ccccc2)NC(=O)O[C@H]2CO[C@H]3OCC[C@H]32)CSC1(C)C
result: 7.38

query: Here is the next molecule: CC(C)CN(C[C@@H](O)[C@H](Cc1ccccc1)NC(=O)O[C@H]1CCOC1)S(=O)(=O)c1ccc(N)cc1
result: 6.50

query: Here is the next molecule: COC(=O)N[C@H](C(=O)N[C@@H](Cc1ccccc1)[C@@H](O)CN(Cc1ccc(-c2ccccn2)cc1)NC(=O)[C@@H](NC(=O)OC)C(C)(C)C)C(C)(C)C
result: 7.40

---

Task for the reader: assign each of the following compounds its reported pIC50.
# Tested on: Human immunodeficiency virus 1
# measurement-description: Antiviral activity against multi drug-resistant HIV1 isolate of subtype C in PHA-stimulated human PBMC assessed as inhibition of p24 antigen production
# Format: functional, organism-based
# measurement-conditions: Human immunodeficiency virus 1, isolate C
Friendly reminder that pIC50 comes from taking -log10 of the concentration in mol/L.

query: // returns reported pIC50 for input COC(=O)N[C@H](C(=O)N[C@@H](Cc1ccccc1)[C@@H](O)CN(Cc1ccc(-c2ccccn2)cc1)NC(=O)[C@@H](NC(=O)OC)C(C)(C)C)C(C)(C)C
result: 7.35

query: Here is the next compound: CC(C)CN(C[C@@H](O)[C@H](Cc1ccccc1)NC(=O)O[C@H]1CCOC1)S(=O)(=O)c1ccc(N)cc1
result: 6.46

query: Here is the next compound: Cc1ccccc1CNC(=O)[C@H]1N(C(=O)[C@@H](O)[C@H](Cc2ccccc2)NC(=O)O[C@H]2CO[C@H]3OCC[C@H]32)CSC1(C)C
result: 7.21
